Values compiled from patent US10071985B2.

- PROTOCOL SUMMARY: Test C: Pharmacokinetic analysis following intravenous administration to beagle dogs
- Assay type: in vivo
- PROTOCOL CONDITIONS: male, beagle, dog, plasma, iv, 1 mg/kg; read-out: Dog CL (converted)

MOLECULE	clearance, mL/min/kg
CC(C)(C#Cc1ccc(-c2ccc(Cl)c3c(NS(=O)(=O)C4CC4)nn(CC(F)F)c23)c([C@H](Cc2cc(F)cc(F)c2)NC(=O)Cn2nc(C(F)F)c3c2C(F)(F)[C@@H]2C[C@H]32)n1)S(C)(=O)=O [Compound 38]	5.5
